Measured attribute: melting point

These recorded examples may help you get a feel for the data.
{"Compound": "COc1ccc(CN2CCC(c3cn(Cc4ccc(Cl)s4)c4cccnc34)CC2)cc1C(=O)O", "melting point": "201 to 202 °C"}
{"Compound": "CC(C)n1c(=O)nc(-c2ccc3c(c2)CCC3)c2cc3c(cc21)OCO3", "melting point": "73 to 75 °C"}
{"Compound": "O=c1[nH]c2ccccc2c(=O)n1S(=O)(=O)c1ccc(Cl)cc1", "melting point": "214 to 215 °C"}

Look at this compound and give its reported melting point. CCOC(=O)c1c(CC)nn2ccc3c(c12)CCO3
110 to 111 °C

Please give the measured melting point for this compound: CN(C)C=Nc1nc(OC(=O)c2ccccc2)ncc1F
136 to 138 °C

For CCCn1nc(SCCCCCCC(=O)O)c(C(=O)O)c1Cc1cc2c(cc1Cl)OCO2 , what is its reported melting point?
180 °C

Quick one: melting point of Cc1c(N2CCc3c(-c4ccccc4)cccc32)nc2ccc(F)cc2c1C(=O)O ?
157 to 159 °C

melting point for COc1ccc(SC2(Sc3ccc(OC)cc3)CCC3C4CCC5=CC(=O)C=CC5(C)C4(F)C(O)CC32C)cc1 (stereo unspecified) ?
209 to 211 °C

Name the recorded melting point for O=C(O)Cc1cc(C(=O)c2c(F)cccc2F)ccc1O .
120 °C

What does the data say about its melting point? Entry: Oc1ccc(Oc2ccccc2F)cc1
81.5 to 82 °C

Given the compound COC(=O)c1cc2ccc(OCCc3ccccc3)cc2oc1=O , what is its reported melting point?
100 to 101 °C

Tell me the measured melting point of Oc1ccc2c(c1)COc1c-2cc2ccc(O)cc2c1-c1ccccc1F , please.
240 to 242 °C

Looking for the measured melting point of CCc1cn(C2CC(O)C(CNC(=O)C(C)Cc3c(Cl)cccc3Cl)O2)c(=O)[nH]c1=O (mixture of isomers) , can you help?
194 to 197 °C

Which melting point is reported for this compound? Cn1c2c(c3ccccc31)CC(OC(=O)c1ccccc1)CC2 (stereo unspecified)
93 to 96 °C

# get_value(readout='melting point', item= COC(=O)[C@H](O)[C@@H](N)c1ccc(F)cc1 )
105 °C

* * *

Catalogue of compounds with associated melting point

Worked examples follow.
{"Compound": "Cc1cccc2c1CCn1cc(-c3ccccc3)nc1C2OC1CCN(C)CC1 (configuration not stated)", "melting point": "71 °C"}
{"Compound": "COC(=O)c1ccc(NC(=O)c2cc(C(C)C)c(C(C)C)o2)cc1", "melting point": "198 to 200 °C"}
{"Compound": "CC1(C)CC([N+]([O-])=Cc2ccccc2)CC(C)(C)N1", "melting point": "113 °C"}
{"Compound": "CCSc1nc(O)nn1C(C)C", "melting point": "109 to 114 °C"}
{"Compound": "CC(C)[Si](C(C)C)(C(C)C)N1C=C2C=C(C=O)OCC3=C2C(=C1)CC3N(C)C (configuration not stated)", "melting point": "104 to 106 °C"}
{"Compound": "CC(=O)C1=CCC2C3CCC4CC(O)CCC4(C)C3=CCC12C (configuration not stated)", "melting point": "188 to 190 °C"}
{"Compound": "C[Si](C)(C)CCOCn1ccnc1-c1c(N)n(CC2CC2)c2nc(Cl)ccc2c1=O", "melting point": "70 °C"}
{"Compound": "O=C(CNCCO)Nc1cccc([N+](=O)[O-])c1", "melting point": "145 to 147 °C"}
{"Compound": "O=Cc1ccc(-c2ccc(Br)cn2)cc1", "melting point": "120 to 121 °C"}
{"Compound": "CC(C)CNC(=O)N(CCCl)N=O", "melting point": "51 °C"}

Need melting point of C=C(C)CN1C[C@H](C)Nc2c(cc(Cl)cc2[N+](=O)[O-])C1=O , thanks.
66.5 °C
